Test system: K-562 leukemia
measurement notes: NCI-60 one-dose screen, 48 h (100 = growth as untreated, 0 = no growth, -100 = all killed)
run conditions: 10 µM unless noted
About 83,000 compounds went through this panel and 20% of them were active in at least one assay; those are over-represented in the sample as a whole.
measured property: growth (%)

In [3]: df
Out[3]:
                           smiles_structure  measured_property  unit_spec  reported_result
0  COc1ccc(-c2nc3cc(Cl)c(Cl)cc3n2CC(=O)N=Nc2c(O)[nH]c3ccccc23)cc1             growth          %             28.7
1  C#C[C@]1(O)CC[C@H]2[C@@H]3CC=C4c5sc(C6CCOCC6)nc5CC[C@]4(C)[C@H]3CC[C@@]21C             growth          %             13.2
2  CCOC(=O)c1c(NCC(=O)Nc2cccc([N+](=O)[O-])c2)sc2c1CCCC2             growth          %              3.3
3  Oc1ccc(CSc2nnc(-c3cnccn3)n2-c2ccccc2)c2cccnc12             growth          %             19.6
4  C#CCOc1ccc(/C=N/Nc2nc(-c3cc(Cl)ccc3Cl)cs2)cc1             growth          %             78.7
